- study.system: Recombinant N-terminal GST tag full-length human HDAC11 (Homo sapiens (Human), UniProt Q96DB2)
- Sequence (Q96DB2 whole entry): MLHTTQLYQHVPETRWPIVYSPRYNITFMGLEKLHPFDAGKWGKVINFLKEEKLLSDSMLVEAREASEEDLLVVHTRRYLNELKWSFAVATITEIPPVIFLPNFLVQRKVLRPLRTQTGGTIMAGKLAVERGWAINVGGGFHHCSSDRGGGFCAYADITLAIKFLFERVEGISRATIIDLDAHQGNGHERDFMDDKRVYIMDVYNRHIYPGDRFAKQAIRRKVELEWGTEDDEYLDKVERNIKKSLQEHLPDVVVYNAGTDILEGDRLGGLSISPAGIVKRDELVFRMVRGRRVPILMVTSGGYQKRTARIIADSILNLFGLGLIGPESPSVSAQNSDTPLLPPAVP
- test.protocol: Probe binding HDAC11 assay, time resolved fluorescence (TRF)
- recorded.conditions: read-out: HDAC11 IC50 Range
pIC50: −log10 of the molar value.
Assignment: determine reported pIC50 for the given compounds.

### Prompt Query (compound): O=C(NO)c1cccc(Nc2nc3cc(Cl)ccc3[nH]2)c1 ; field requested: pIC50
### Response < 6.00

### Prompt What do you have for CN(c1cccc(C(=O)NO)c1)c1nc2cc(C(F)(F)F)c(-c3cccnc3)cc2n1C ?
### Response < 6.00

### Prompt What about this compound? O=C(NO)c1cccc(Nc2nc3cc(C(F)(F)F)c(-c4ccc(N5CCOCC5)cc4)cc3[nH]2)c1
### Response > 6.30

### Prompt Let us now turn to O=C(NO)c1cccc(Nc2nc3cc(-c4ccccc4)c(C(F)(F)F)cc3[nH]2)c1
### Response > 6.30

### Prompt Try O=C(NO)c1cccc(Nc2nc3cc(Cl)c(C(F)(F)F)cc3[nH]2)c1 next.
### Response > 6.30

### Prompt Moving on to the next compound: CC(C)n1c(Nc2cccc(C(=O)NO)c2)nc2cc(C(F)(F)F)c(-c3ccccc3)cc21
### Response > 6.30

### Prompt Can you check O=C(NO)c1cccc(Nc2nc3cc(Br)c(OC(F)(F)F)cc3[nH]2)c1 next?
### Response > 6.30

### Prompt Likewise for CN(C)c1ccc(-c2cc3[nH]c(Nc4cccc(C(=O)NO)c4)nc3cc2C(F)(F)F)cn1 ?
### Response > 6.30

### Prompt Now this one: N#Cc1cc2nc(Cc3cccc(C(=O)NO)c3)[nH]c2cc1C(F)(F)F
### Response > 6.30

### Prompt What do you have for COCCn1c(Nc2cccc(C(=O)NO)c2)nc2cc(-c3ccccc3)c(C(F)(F)F)cc21 ?
### Response > 6.30

### Prompt Same again, this time with O=C(NO)c1cccc(Nc2nc3cc(C(F)(F)F)c(-c4ccccc4)cc3o2)c1
### Response > 6.30

### Prompt What about CC(C)n1c(Nc2cccc(C(=O)NO)c2)nc2cc(Cl)c(Cl)cc21 ?
### Response > 6.30

### Prompt Cool, now COCCn1c(Nc2cccc(C(=O)NO)c2)nc2c(OC)cccc21
### Response < 6.00

### Prompt Next: CC(C)n1c(Nc2cccc(C(=O)NO)c2)nc2cc(C(F)(F)F)c(C#N)cc21
### Response > 6.30

### Prompt // same read-out, input: Cc1cc2nc(Nc3cccc(C(=O)NO)c3)[nH]c2cc1C
### Response > 6.30

Value source: patent US10508088B2
